biological target: 17β-hydroxysteroid dehydrogenase type 1 (17β-HSD type 1) (Homo sapiens, UniProt P14061); construct: expressed in transfected cells; host or cells: MCF-7; assay: Inhibition of 17β-HSD type 1 in MCF-7 cells stably expressing the isoenzyme (tritium labeled estrone conversion, HPLC); assay type: cell-based; details: 10 μM test compound; MCF-7 cells expressing 17β-HSD type 1; 2 nM tritium labeled estrone
experimental_endpoint: % Inhibition HSD1 10 μM (%)

[ask] Write down % Inhibition HSD1 10 μM measured for item O=c1c2c(nc(Cc3ccccc3)n1Cc1ccccc1)sc1c(O)cccc12 [No. 660]
[reply] 37.1

[ask] Write down % Inhibition HSD1 10 μM measured for item CC(C)=Cc1nc2sc3c(O)cccc3c2c(=O)n1CCc1cccs1 [No. 648]
[reply] 24.6

[ask] Write down % Inhibition HSD1 10 μM measured for item CCCCC(CC)c1nc2sc3c(O)cccc3c2c(=O)n1CCc1ccccc1 (centres unmarked) [No. 628]
[reply] 32.4

A: O=c1c2c(nc(CCc3ccccc3)n1Cc1ccccc1)sc1c(O)cccc12 [No. 659]
B: CCCCC(CC)c1nc2sc3c(O)cccc3c2c(=O)n1CCCC (centres unmarked) [No. 635]
[ask] For the pair A and B , which entry has the numerically smaller recorded % Inhibition HSD1 10 μM? Selection: enter the item's label.
[reply] B

====

Molecular target: 17β-hydroxysteroid dehydrogenase type 1 (17β-HSD type 1) (Homo sapiens, UniProt P14061)
Construct: expressed in transfected cells; host or cells: MCF-7
Sequence (P14061 1-328): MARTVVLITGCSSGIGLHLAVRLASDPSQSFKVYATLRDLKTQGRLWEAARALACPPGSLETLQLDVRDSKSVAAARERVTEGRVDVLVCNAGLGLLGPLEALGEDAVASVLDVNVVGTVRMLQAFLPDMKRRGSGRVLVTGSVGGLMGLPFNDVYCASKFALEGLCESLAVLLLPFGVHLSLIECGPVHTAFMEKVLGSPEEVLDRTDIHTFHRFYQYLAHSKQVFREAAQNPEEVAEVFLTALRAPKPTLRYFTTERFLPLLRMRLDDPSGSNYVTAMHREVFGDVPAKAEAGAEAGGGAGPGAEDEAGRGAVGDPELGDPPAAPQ
Test: Inhibition of 17β-HSD type 1 in MCF-7 cells stably expressing the isoenzyme (tritium labeled estrone conversion, HPLC)
Type: cell-based
Settings: MCF7; 10 μM test compound; MCF-7 cells expressing 17β-HSD type 1; 2 nM tritium labeled estrone; read-out: % Inhibition HSD1 10 μM
experimental_endpoint: inhibition at 10 µM (%)

Recorded inhibition at 10 µM, per entry:
[ask] Write down inhibition at 10 µM measured for item "COc1cc(-c2nc3sc4c(Sc5ccccc5)c(C=O)ccc4c3c(=O)n2Cc2ccccc2)cc(OC)c1OC"
[reply] 29.9

[ask] Write down inhibition at 10 µM measured for item CCC(C)Cn1c(-c2cc(OC)c(OC)c(OC)c2Cl)nc2sc3c(O)cccc3c2c1=O (stereo not shown)
[reply] 74.2

[ask] Write down inhibition at 10 µM measured for item "O=C1CCCc2c1sc1nc(-c3ccc(Br)s3)n(Cc3ccccc3)c(=O)c21"
[reply] 20.7

[ask] Write down inhibition at 10 µM measured for item "COc1cc(-c2nc3sc4c(c3c(=O)n2-c2ccccc2)CCCC4)cc(OC)c1OC"
[reply] 35.1

A: O=C(OCCn1c(-c2cccs2)nc2sc3c(O)cccc3c2c1=O)c1cccs1
B: COCc1nc2sc3c(c2c(=O)n1-c1ccccc1)CCCC3=O
C: CCCCn1c(-c2cc(OC)c(OC)c(OC)c2)nc2sc3c(c2c1=O)CCC(Br)C3=O (stereo not shown)
D: COCCn1c(-c2cccs2)nc2sc3c(c2c1=O)CCCC3=O
E: CCOC(=O)C1=Cc2sc3nc(-c4ccc(OC)cc4)n(Cc4ccccc4)c(=O)c3c2CC1
[ask] Falling order of inhibition at 10 µM, please. Form entry: labels listed in requested order.
[reply] C, A, B, D, E
(C: 67.4%, A: 32.8%, B: 21.4%, D: 11.9%, E: -6.5%)

A: COCc1nc2sc3c(c2c(=O)n1Cc1ccccc1)CCCC3=O
B: COc1cc(-c2nc3sc4c(OC)cccc4c3c(=O)n2Cc2ccccc2)c(Br)c(OC)c1OC
C: CCCCn1c(-c2cc(OC)c(OC)c(OC)c2)nc2sc3c(O)cccc3c2c1=O
[ask] Ascending by inhibition at 10 µM, please: list the compounds accordingly. Form entry: labels listed in requested order.
[reply] B, A, C
